src = patent US20250304667A1

target: human complement Component 5 (C5) (human, UniProt P01031 19-1676, limits assumed); assay: cell-based or functional assay
Sequence (P01031 19-1676 limits assumed): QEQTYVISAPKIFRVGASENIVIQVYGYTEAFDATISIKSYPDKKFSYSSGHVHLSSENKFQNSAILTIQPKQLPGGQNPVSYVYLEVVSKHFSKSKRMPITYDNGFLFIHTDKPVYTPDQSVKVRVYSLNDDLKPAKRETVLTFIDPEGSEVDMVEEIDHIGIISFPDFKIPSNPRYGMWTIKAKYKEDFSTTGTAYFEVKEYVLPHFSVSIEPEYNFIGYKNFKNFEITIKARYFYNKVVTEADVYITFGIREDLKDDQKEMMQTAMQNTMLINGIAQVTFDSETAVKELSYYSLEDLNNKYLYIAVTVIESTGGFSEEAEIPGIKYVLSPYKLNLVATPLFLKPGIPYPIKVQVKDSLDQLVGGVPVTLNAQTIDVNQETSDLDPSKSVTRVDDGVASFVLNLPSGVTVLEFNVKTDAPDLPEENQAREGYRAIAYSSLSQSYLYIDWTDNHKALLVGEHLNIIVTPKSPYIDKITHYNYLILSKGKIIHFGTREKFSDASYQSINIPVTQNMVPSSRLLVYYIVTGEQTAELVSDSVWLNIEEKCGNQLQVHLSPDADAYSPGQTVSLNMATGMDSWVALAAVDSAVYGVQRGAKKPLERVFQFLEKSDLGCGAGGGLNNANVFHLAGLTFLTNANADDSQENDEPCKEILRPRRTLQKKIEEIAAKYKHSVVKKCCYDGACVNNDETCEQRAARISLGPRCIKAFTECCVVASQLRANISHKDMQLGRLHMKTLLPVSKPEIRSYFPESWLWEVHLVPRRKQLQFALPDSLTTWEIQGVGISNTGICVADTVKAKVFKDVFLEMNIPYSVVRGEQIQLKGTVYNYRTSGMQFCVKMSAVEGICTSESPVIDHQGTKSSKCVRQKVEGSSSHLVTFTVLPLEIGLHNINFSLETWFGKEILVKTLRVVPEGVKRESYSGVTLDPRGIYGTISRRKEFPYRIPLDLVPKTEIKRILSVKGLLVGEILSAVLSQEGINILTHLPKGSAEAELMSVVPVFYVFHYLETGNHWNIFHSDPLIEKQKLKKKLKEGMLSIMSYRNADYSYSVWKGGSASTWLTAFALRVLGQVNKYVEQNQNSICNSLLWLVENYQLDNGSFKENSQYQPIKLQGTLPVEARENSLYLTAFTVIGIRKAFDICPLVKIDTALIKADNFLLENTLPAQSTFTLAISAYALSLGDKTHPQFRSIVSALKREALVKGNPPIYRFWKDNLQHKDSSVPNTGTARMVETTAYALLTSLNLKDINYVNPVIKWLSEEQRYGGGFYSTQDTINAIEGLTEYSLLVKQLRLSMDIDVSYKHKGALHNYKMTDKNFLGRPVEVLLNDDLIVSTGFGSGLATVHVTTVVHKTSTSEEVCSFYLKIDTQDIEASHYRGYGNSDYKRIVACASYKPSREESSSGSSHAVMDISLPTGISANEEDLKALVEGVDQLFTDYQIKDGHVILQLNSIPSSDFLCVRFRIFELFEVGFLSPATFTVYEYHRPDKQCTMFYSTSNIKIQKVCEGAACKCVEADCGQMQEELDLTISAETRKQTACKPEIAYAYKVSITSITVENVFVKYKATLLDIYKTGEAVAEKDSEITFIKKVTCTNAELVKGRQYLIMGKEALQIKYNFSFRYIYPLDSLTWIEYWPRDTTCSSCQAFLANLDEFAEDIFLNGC
Readings of IC50 (read off the curve), OD (450nM) for the listed binders

Solved cases (3 shown):
binder | measurement kind | value measured
H5L4-Fab (Fab, V domains shown) VH: QVQLKQSGAEVKKPGASVKVSCKASGYTFTDEYMNWVRQAPGKSLEWMGYINPNNGGADYNQKFQGRVTMTVDQSISTAYMELSRLRSDDTAVYFCARLGYSNPYFDFWGQGTLVTVSS VL: DIVLTQSPATLSLSPGERATLSCRASQDVNTAVAWYQQKPGKSPKLLIYWASTRHTGVPARFTGSGSGTDYTLTISSLQPEDFAVYFCQQHHVSPWTFGGGTKVEIK | IC50 (read off the curve), OD (450nM) | ~0.4 µg/mL
H5L3-Fab (Fab, V domains shown) VH: QVQLKQSGAEVKKPGASVKVSCKASGYTFTDEYMNWVRQAPGKSLEWMGYINPNNGGADYNQKFQGRVTMTVDQSISTAYMELSRLRSDDTAVYFCARLGYSNPYFDFWGQGTLVTVSS VL: DIVLTQSPSFLSASVGDRVTITCQASQDVNTAVAWYLQKPGKSPKLLIYWASTRHTGVPARFTGSGSGTDYTLTISSLQPEDFAVYFCQQHHVSPWTFGGGTKVEIK | IC50 (read off the curve), OD (450nM) | ~0.4 µg/mL
H3L3-Fab (Fab, V domains shown) VH: QVQLVQSGAEVKKPGASVKVSCKASGYTFTDEYMNWVRQAPGQSLEWMGYINPNNGGADYNPSLKSRVTISVDQSISTAYMELSRLRSDDTAVYFCARLGYSNPYFDFWGQGTLVTVSS VL: DIVLTQSPSFLSASVGDRVTITCQASQDVNTAVAWYLQKPGKSPKLLIYWASTRHTGVPARFTGSGSGTDYTLTISSLQPEDFAVYFCQQHHVSPWTFGGGTKVEIK | IC50 (read off the curve), OD (450nM) | ~0.5 µg/mL

stdin: For the binder shown here, H1L4-Fab (Fab, V domains shown) VH: QVQLVQSGAEVKKPGASVKVSCKASGYTFTDEYMNWVRQAPGQSLEWMGYINPNNGGADYNQKFQGRVTMTVDQSISTAYMELSRLRSDDTAVYFCARLGYSNPYFDFWGQGTLVTVSS VL: DIVLTQSPATLSLSPGERATLSCRASQDVNTAVAWYQQKPGKSPKLLIYWASTRHTGVPARFTGSGSGTDYTLTISSLQPEDFAVYFCQQHHVSPWTFGGGTKVEIK , give the reported IC50 (read off the curve), OD (450nM).
stdout: ~0.4 µg/mL
